Task for the reader: assign each of the following binders its reported pEGFR inhibition in H292 cells IC50.
Molecular target: human EGFR on cells (A431, NCI-H292, NCI-H322, NCI-H441) (human, UniProt P00533 25-1210)
Assay: cell-based or functional assay
Write the value in nM as a bare number.

Prompt line: Suppose we examine the binder ECB94 (designed binder, not shown: small tags and cut ends, Bispecific: P54AR4-83v22, (AP)5, P114AR7P94-A3v22) MLPAPKNLVVSEVTEDSARLSWDDPWAFYESFLIQYQESEKVGEAIVLTVPGSERSYDLTGLKPGTEYTVSIYGVHNVYKDTNIRGLPLSAIFTTAPAPAPAPAPLPAPKNLVVSRVTEDSARLSWTAPDAAFDSFWIRYFEFLGSGEAIVLTVPGSERSYDLTGLKPGTEYVVNILGVKGGKISPPLSAIFTT ; what pEGFR inhibition in H292 cells IC50 value has been reported?
Response line: 5.1

Prompt line: Suppose we examine the binder ECB107 (designed binder, not shown: small tags and cut ends, Bispecific: P54AR4-83v23, (AP)5, P114AR9P121-A6v2) MLPAPKNLVVSEVTEDSARLSWDDPHAFYESFLIQYQESEKVGEAIVLTVPGSERSYDLTGLKPGTEYTVSIYGVHNVYKDTNIRGLPLSAIFTTAPAPAPAPAPLPAPKNLVVSRVTEDSARLSWTAPDAAFDSFWIRYFEFVGSGEAIVLTVPGSERSYDLTGLKPGTEYVVNILGVKGGSISPPLSAIFTT ; what pEGFR inhibition in H292 cells IC50 value has been reported?
Response line: 812

Prompt line: Suppose we examine the binder ECB15 (designed binder, not shown: small tags and cut ends) MLPAPKNLVVSEVTEDSARLSWDDPWAFYESFLIQYQESEKVGEAIVLTVPGSERSYDLTGLKPGTEYTVSIYGVHNVYKDTNMRGLPLSAIFTTAPAPAPAPAPLPAPKNLVVSRVTEDSARLSWTAPDAAFDSFWIRYFEFLGSGEAIVLTVPGSERSYDLTGLKPGTEYVVNIMGVKGGKISPPLSAIFTT ; what pEGFR inhibition in H292 cells IC50 value has been reported?
Response line: 4.2

Where do these numbers come from? They come from patent US20210301025A1.
